assay: Toxicity against human HL60 cells assessed as inhibition of cell proliferation; type: cell-based; conditions: HL-60 cells
Entries annotated with measured IC50
# number only, unit nM dropped from output

INSERT INTO assay_data (record_smiles, reading) VALUES
  ('CC1=CC[C@H]2C(C)(C)CCC[C@]2(C)[C@H]1CC1=C(O)C(=O)C=CC1=O', 340);

Note: attention shifts to another entry.
Short answer for "CC(=O)Oc1ccc(O)c(C[C@H]2C(C)=CC[C@H]3C(C)(C)CCC[C@]23C)c1O" : IC50 was 370

Taken from ChEMBL document CHEMBL1158821.
